Origin of measurements: ChEMBL document CHEMBL5050861

Test: Permeability of compound by PAMPA assay
Format: ADME
Conditions: read-out: permeability
Below: a set of entries, each annotated with reported Papp.
property: Papp

INSERT INTO results (molecule, measurement) VALUES
  ('CC1=C(C(=O)Nc2cc(C(=O)O)ccn2)C(c2cccc(C(F)(F)F)c2)N=C(Nc2nc3ccc(F)cc3o2)N1 (configuration not stated)', '< 1 ×10⁻⁶ cm/s'),
  ('CC1=C(C(=O)Nc2cc(C(=O)O)ccn2)[C@@H](c2ccccc2Cl)N=C(Nc2nc3ccc(F)cc3o2)N1', '< 1 ×10⁻⁶ cm/s'),
  ('CC1=C(C(=O)Nc2ncc(C(=O)O)s2)C(c2ccccc2Cl)N=C(Nc2nc3ccccc3o2)N1 (configuration not stated)', '< 1 ×10⁻⁶ cm/s'),
  ('CCn1cc(CNC(=O)C2=C(C)NC(Nc3nc4ccc(F)cc4o3)=NC2c2ccc(C)cc2Cl)cn1 (configuration not stated)', '< 21.9 ×10⁻⁶ cm/s'),
  ('CC1=C(C(=O)Nc2nnc(-c3cccnc3)s2)C(c2ccccc2Cl)N=C(Nc2nc3ccc(F)cc3o2)N1 (configuration not stated)', '< 9.9 ×10⁻⁶ cm/s'),
  ('CC1=C(C(=O)Nc2ccnc(C(=O)O)c2)C(c2ccccc2Cl)N=C(Nc2nc3ccccc3o2)N1 (configuration not stated)', '< 1 ×10⁻⁶ cm/s'),
  ('CC1=C(C(=O)Nc2ccc([N+](=O)[O-])cc2)C(c2ccccc2Cl)N=C(Nc2nc3ccccc3o2)N1 (configuration not stated)', '< 7.3 ×10⁻⁶ cm/s'),
  ('CCn1cc(C(C)NC(=O)C2=C(C)NC(Nc3nc4cccc(N)c4o3)=NC2c2ccc(C)cc2Cl)cn1 (configuration not stated)', '333 ×10⁻⁶ cm/s'),
  ('CC1=C(C(=O)Nc2cc(C(=O)O)ccn2)C(c2ccc(C#N)cc2Cl)N=C(Nc2nc3ccc(F)cc3o2)N1 (configuration not stated)', '< 1 ×10⁻⁶ cm/s'),
  ('CC1=C(C(=O)Nc2cc(C(=O)O)ccn2)C(c2ccccc2Cl)N=C(Nc2nc3c(N)cccc3o2)N1 (configuration not stated)', '< 1 ×10⁻⁶ cm/s'),
  ('COc1ccc2nc(NC3=NC(c4ccccc4Cl)C(C(=O)Nc4cc(C(=O)O)ccn4)=C(C)N3)oc2c1 (configuration not stated)', '< 1 ×10⁻⁶ cm/s'),
  ('COC(=O)Cc1cccc(NC(=O)C2=C(C)NC(Nc3nc4ccccc4o3)=NC2c2ccccc2Cl)c1 (configuration not stated)', '< 17.4 ×10⁻⁶ cm/s'),
  ('CC1=C(C(=O)NCc2cnn(C)c2)C(c2ccc(C)cc2Cl)N=C(Nc2nc3ccc(F)c(C(=O)O)c3o2)N1 (configuration not stated)', '< 1 ×10⁻⁶ cm/s'),
  ('CC1=C(C(=O)Nc2ccc(C(=O)O)cn2)C(c2ccccc2Cl)N=C(Nc2nc3ccc(F)cc3o2)N1 (configuration not stated)', '< 1 ×10⁻⁶ cm/s'),
  ('CC1=C(C(=O)Nc2nncs2)C(c2ccc(Cl)cc2Cl)N=C(Nc2nc3ccccc3o2)N1 (configuration not stated)', '< 4.9 ×10⁻⁶ cm/s'),
  ('CC1=C(C(=O)Nc2cc(C(=O)O)ccn2)[C@@H](c2ccc(C)cc2Cl)N=C(Nc2nc3cccc(N)c3o2)N1', '< 1 ×10⁻⁶ cm/s'),
  ('CC1=C(C(=O)Nc2ccc(N3CCNCC3)cc2)C(c2ccccc2Cl)N=C(Nc2nc3ccccc3o2)N1 (configuration not stated)', '894 ×10⁻⁶ cm/s');

* * *

Assay: Stability of compound in rat microsomes assessed as half-life
Assay type: ADME, Microsome
Entries and their measured half-life follow.
property: half-life (min)

INSERT INTO assay_data (compound, property, value_unit, value_relation_sign, measurement) VALUES
  ('CC1=C(C(=O)NCc2cnn(C(C)(C)C)c2)C(c2ccc(C)cc2Cl)N=C(Nc2nc3ccc(F)c(N)c3o2)N1 (stereo not given)', 'half-life', 'min', '=', 14.4),
  ('CCn1cc(CNC(=O)C2=C(C)NC(Nc3nc4ccc(F)c(N)c4o3)=NC2c2ccc(C)cc2Cl)cn1 (racemic)', 'half-life', 'min', '=', 14.1),
  ('CC1=C(C(=O)Nc2nncs2)C(c2ccc(C)cc2Cl)N=C(Nc2nc3ccccc3o2)N1 (stereo not given)', 'half-life', 'min', '>', 30),
  ('CC1=C(C(=O)Nc2cc(C(=O)O)ccn2)C(c2ccc(C(=O)O)cc2Cl)N=C(Nc2nc3ccc(F)cc3o2)N1 (stereo not given)', 'half-life', 'min', '>', 30),
  ('CC1=C(C(=O)Nc2nnc(C)s2)C(c2ccccc2Cl)N=C(Nc2nc3ccccc3o2)N1 (stereo not given)', 'half-life', 'min', '>', 30);

* * *

# Lookup of reported half-life keyed by entry
Test: Stability of compound in rat microsomes assessed as half-life
Type: ADME, Microsome
property: half-life

INSERT INTO results (compound, measurement) VALUES
  ('CC1=C(C(=O)Nc2cc(C(=O)O)ccn2)C(c2ccc(C#N)cc2Cl)N=C(Nc2nc3ccc(F)cc3o2)N1 (centres undefined)', '> 30 min'),
  ('CC1=C(C(=O)Nc2cc(C(=O)O)ccn2)C(c2ccccc2Cl)N=C(Nc2nc3c(C)cccc3o2)N1 (centres undefined)', '> 30 min'),
  ('CC1=C(C(=O)Nc2ccc(Cl)cn2)C(c2ccccc2Cl)N=C(Nc2nc3ccccc3o2)N1 (centres undefined)', '30.8 min'),
  ('CC1=C(C(=O)Nc2nncs2)C(c2ccccc2C(F)(F)F)N=C(Nc2nc3ccccc3o2)N1 (centres undefined)', '> 30 min');

* * *

Assay: Inhibition of recombinant mouse GALK1 using ATP as substrate incubated for 1 hr and measured by Kinase-Glo assay
Conditions: read-out: IC50
property: IC50 (µM)

INSERT INTO measurements (molecule, measurement) VALUES
  ('CC1=C(C(=O)Nc2cc(C(=O)O)ccn2)C(c2ccccc2Cl)N=C(Nc2nc3cc(N)ccc3o2)N1 (centres undefined)', 21.7),
  ('CC1=C(C(=O)Nc2cccnc2)C(c2ccccc2Cl)N=C(Nc2nc3ccccc3o2)N1 (centres undefined)', 12.2),
  ('CC1=C(C(=O)Nc2cc(C(=O)O)ccn2)C(c2cccc(C(N)=O)c2)N=C(Nc2nc3ccc(F)cc3o2)N1 (centres undefined)', 21.7),
  ('CC1=C(C(=O)NCc2cnn(C(C)(C)C)c2)C(c2ccc(C)cc2Cl)N=C(Nc2nc3ccc(F)c(N)c3o2)N1 (centres undefined)', 4.32);

* * *

pIC50 by entry:
Experiment: Inhibition of recombinant mouse GALK1 using ATP as substrate incubated for 1 hr and measured by Kinase-Glo assay
Conditions: read-out: IC50
pIC50: −log10 of the molar value.
property: pIC50

INSERT INTO measurements (molecule, measurement) VALUES
  ('CCn1cc(CNC(=O)C2=C(C)NC(Nc3nc4ccc(F)cc4o3)=NC2c2ccc(C)cc2Cl)cn1 (configuration not stated)', 5.16),
  ('CC1=C(C(=O)NCc2cnn(C)c2)C(c2ccc(F)cc2Cl)N=C(Nc2nc3cccc(N)c3o2)N1 (configuration not stated)', 5.16),
  ('CC1=C(C(=O)Nc2ccccc2CO)C(c2ccccc2Cl)N=C(Nc2nc3ccccc3o2)N1 (configuration not stated)', 4.76),
  ('CC1=C(C(=O)Nc2ccc(C(=O)N3CCOCC3)cc2)C(c2ccccc2Cl)N=C(Nc2nc3ccccc3o2)N1 (configuration not stated)', 4.66),
  ('COCC1=C(C(=O)Nc2nncs2)C(c2ccccc2Cl)N=C(Nc2nc3ccccc3o2)N1 (configuration not stated)', 4.71),
  ('CC1=C(C(=O)Nc2ccccc2O)C(c2ccccc2Cl)N=C(Nc2nc3ccccc3o2)N1 (configuration not stated)', 4.76),
  ('COC(=O)c1ccnc(NC(=O)C2=C(C)NC(Nc3nc4ccccc4o3)=NC2c2ccccc2Cl)c1 (configuration not stated)', 5.26),
  ('CC1=C(C(=O)NCc2cccnc2)C(c2ccccc2Cl)N=C(Nc2nc3ccccc3o2)N1 (configuration not stated)', 4.71),
  ('CC1=C(C(=O)Nc2nnc(-c3cccnc3)s2)C(c2ccccc2Cl)N=C(Nc2nc3cc(C)ccc3o2)N1 (configuration not stated)', 4.96),
  ('CC1=C(C(=O)Nc2cc(C(=O)O)ccn2)C(c2cccc([N+](=O)[O-])c2Cl)N=C(Nc2nc3ccc(F)cc3o2)N1 (configuration not stated)', 4.46),
  ('CC1=C(C(=O)Nc2cc(C(=O)O)ccn2)C(c2cccc(C(F)(F)F)c2Cl)N=C(Nc2nc3ccc(F)cc3o2)N1 (configuration not stated)', 4.56),
  ('CC1=C(C(=O)Nc2cc(C(N)=O)ccn2)C(c2ccccc2Cl)N=C(Nc2nc3ccccc3o2)N1 (configuration not stated)', 5.11),
  ('CC1=C(C(=O)Nc2ccnc(C(=O)O)c2)C(c2ccccc2Cl)N=C(Nc2nc3ccccc3o2)N1 (configuration not stated)', 5.51),
  ('COc1ccc([C@@H]2N=C(Nc3nc4ccc(F)cc4o3)NC(C)=C2C(=O)Nc2cc(C(=O)O)ccn2)c(Cl)c1', 5.70),
  ('CC1=C(C(=O)NCc2cnn(C)c2)C(c2ccc(C)cc2Cl)N=C(Nc2nc3ccc(F)c(N)c3o2)N1 (configuration not stated)', 6.16),
  ('CC1=C(C(=O)Nc2cc(C(=O)O)ccn2)C(c2ccc(Cl)cc2Cl)N=C(Nc2nc3ccc(F)cc3o2)N1 (configuration not stated)', 5.41),
  ('CC1=C(C(=O)Nc2cc(C(=O)O)ccn2)C(c2ccccc2Cl)N=C(Nc2nc3ccc(F)cc3o2)N1 (racemic)', 5.36);
